Measured values drawn from ChEMBL document CHEMBL5226308 for this set.

# Experimental Protocol: Cytotoxicity against African green monkey Vero E6 cells assessed as reduction in cell viability incubated for 48 hrs by MTS assay
# Type: toxicity, cell-based, Chlorocebus sabaeus, Vero C1008
Measure Name: IC50 at 48 h (µM)
Give bare numbers, in µM.

Inquiry: // returns reported IC50 at 48 h for input FC(F)(F)c1ccc2cc(CNC3CCCCCCC3)[nH]c2c1
Reply text: 22

----------
# Experimental Protocol: Selectivity index, ratio of IC50 for cytotoxicity against African green monkey Vero E6 cells to MIC50 for antimycobacterial activity against Mycobacterium tuberculosis H37Rv ATCC 27294
# Type: toxicity, cell-based, Vero C1008
# Applied Conditions: read-out: Selectivity Index
Measure Name: selectivity ratio
Give bare numbers.

Inquiry: Requested field: selectivity ratio. Item: FC(F)(F)c1ccc2cc(CNC3CCCCCCC3)[nH]c2c1
Reply text: 366
